system: Echinochloa crus-galli (ECHCG); test: Glasshouse assay for herbicidal activity, pre-/post-emergence (percentage phytotoxicity); type: in vivo; conditions: Echinochloa crus-galli, post-emergence, 360 h, Rate 250 g/ha; post-emergence; visual assessment 15 DAA; 100%=total damage, 0%=no damage; read-out: Post-emergence herbicidal activity (percentage phytotoxicity), ECHCG POST
Reported pest or weed control at 250 g/ha by item:
MEASURED_METRIC: pest or weed control at 250 g/ha (%)

COMPOUND	READOUT_VALUE
Cc1cc(-c2ncc(Cl)cc2F)cc(C)c1C1C(=O)CC(CCNC(=O)C2=NOC(C)(C)C2)C1=O (stereo not shown) [Compound A117]	100
Cc1cc(-c2ncc(F)cn2)cc(C)c1C1C(=O)CC(CCNC(=O)C2=NOC(C)(C)C2)C1=O (stereo not shown) [Compound A110]	100
Cc1cc(C)c(C2C(=O)CC(CCNc3ccc(C#N)cc3C(F)(F)F)C2=O)c(C)c1 (stereo not shown) [Compound A106]	90
Cc1cc(-n2cc(Cl)cn2)cc(C)c1C1C(=O)CC(CCNS(=O)(=O)c2ccc(Cl)cc2)C1=O (stereo not shown) [Compound A37]	30
CC#Cc1cc(C)c(C2C(=O)CC(CCNC(=O)Nc3ccccn3)C2=O)c(C)c1 (stereo not shown) [Compound A92]	100
Cc1cc(-c2ncc(C#N)cn2)cc(C)c1C1C(=O)CC(CCNC(=O)C2=NOC(C)(C)C2)C1=O (stereo not shown) [Compound A114]	100
Cc1cc(C)c(C2C(=O)CC(CCNS(=O)(=O)c3ccccc3Cl)C2=O)c(C)c1 (stereo not shown) [Compound A80]	0
Cc1cc(C)c(C2C(=O)CC(CCNC(=O)NC(=O)c3ccc(C(F)(F)F)c(F)c3)C2=O)c(C)c1 (stereo not shown) [Compound A61]	70
COc1ccc(C(=O)NC(=O)NCCC2CC(=O)C(c3c(C)cc(C)cc3C)C2=O)cc1 (stereo not shown) [Compound A57]	80
Cc1cc(C)c(C2C(=O)CC(CCNC(=O)Nc3ncccn3)C2=O)c(C)c1 (stereo not shown) [Compound A30]	90
